Here the recorded IC50 ratio between resistant and non-resistant cells is given for each entry.
- System: MES-SA/DX5 cells
- Test summary: XTT cytotoxicity, MES-SA/DX5
- Assay type: cell-based
- Run parameters: MES-SA/DX5 / MES-SA
// no unit string in output, number only

For the molecule Cc1c(C(=O)OCCCCN)[nH]c2c1C(=O)CC(c1ncco1)C2.Cl.Cl (stereo not shown) , give its reported IC50 ratio between resistant and non-resistant cells. 2.391

Identify measured IC50 ratio between resistant and non-resistant cells associated with CCCCCOC(=O)c1[nH]c2c(c1C)C(O)CC(c1ncco1)C2 (stereo not shown) 0.700

Please report the measured IC50 ratio between resistant and non-resistant cells for Cc1c(C(=O)OCCCCN)oc2c1C(=O)CC(c1ncco1)C2.Cl (stereo not shown) 0.778

Name the recorded IC50 ratio between resistant and non-resistant cells of the molecule listed here: CCCCCOC(=O)c1[nH]c2c(c1C)C(=O)CC(c1ncco1)C2 (stereo not shown) 0.508
